This listing pairs molecules with measured Population Pyknosed Nuclei (%).
System: HEK-293T
Assay: Multiplex assay against HEK293T
Format: toxicity, cell-based
Conditions: human, 24 h, 1 µM, compound concentration 1 uM, replicate 1

{"molecule": "COC(=O)C1=C(C)NC(C)=C(C(=O)OCCCN2CCC(c3ccccc3)(c3ccccc3)CC2)[C@H]1c1cccc([N+](=O)[O-])c1", "unit_info": "%", "Population Pyknosed Nuclei (%)": 50}
{"molecule": "CN1CCN(Cc2ccc(Nc3ncc(Cl)c(Nc4ccccc4S(=O)(=O)N(C)C)n3)cc2)CC1", "unit_info": "%", "Population Pyknosed Nuclei (%)": 39}
{"molecule": "CCOC(=O)Nc1cc(-c2ccc(C)c(NS(C)(=O)=O)c2)nn2c(C)nnc12", "unit_info": "%", "Population Pyknosed Nuclei (%)": 9}
{"molecule": "O=c1[nH]c2ccccc2n1C1CCN(Cc2ccc(-c3[nH]c4cc5ncnc5cc4nc3-c3ccccc3)cc2)CC1", "unit_info": "%", "Population Pyknosed Nuclei (%)": 5}
{"molecule": "CC(C)OC(=O)N1CCC(Oc2ncnc3c2cnn3-c2ccc(S(C)(=O)=O)cc2F)CC1", "unit_info": "%", "Population Pyknosed Nuclei (%)": 48}
{"molecule": "C=CC(=O)Nc1ccc2[nH]c(=O)n(C3CCN(Cc4ccc(-c5nc6cc[nH]c(=O)c6cc5-c5ccccc5)cc4)CC3)c2c1", "unit_info": "%", "Population Pyknosed Nuclei (%)": 9}
{"molecule": "Cl.O=C(O)c1cc(-c2ccc(C3CCNCC3)cc2)c2ccc(-c3ccc(C(F)(F)F)cc3)cc2c1", "unit_info": "%", "Population Pyknosed Nuclei (%)": 51}
{"molecule": "CCCSc1nc(N[C@@H]2C[C@H]2c2ccc(F)c(F)c2)c2nnn([C@@H]3C[C@H](OCCO)[C@@H](O)[C@H]3O)c2n1", "unit_info": "%", "Population Pyknosed Nuclei (%)": 44}
{"molecule": "Cc1ccccc1C(c1ccccc1C)N1C2CCC1CC(O)(c1ccccc1)C2 (centres undefined)", "unit_info": "%", "Population Pyknosed Nuclei (%)": 40}
